- System: Staph. aureus
- assay summary: Agar Dilution MIC (Table I)
- Assay type: cell-based
- condition parameters: Staphylococcus aureus, strain X400; read-out: Agar Dilution MIC
metric: MIC (µg/mL)
Numeric only. Scale: µg/mL

Take a look at these entries with their results.
CC1=C(C(=O)O)N2C(=O)C(NC(=O)[C@@H](N)c3csc4c(F)cccc34)C2SC1 (some centres unmarked) : 128
CC1=C(C(=O)O)N2C(=O)C(NC(=O)[C@H](N)c3csc4c(F)cccc34)C2SC1 (some centres unmarked) : 128
CC1=C(C(=O)O)N2C(=O)C(NC(=O)[C@H](N)c3csc4cccc(Cl)c34)C2SC1 (some centres unmarked) [Ex. 36B] : 128
CC1=C(C(=O)O)N2C(=O)C(NC(=O)[C@H](N)c3csc4cc(F)ccc34)C2SC1 (some centres unmarked) : 64
CC1=C(C(=O)O)N2C(=O)C(NC(=O)[C@H](N)c3csc4cc(Cl)ccc34)C2SC1 (some centres unmarked) [Ex. 37B] : 16

// MIC lookup, key: CC1=C(C(=O)O)N2C(=O)C(NC(=O)[C@H](N)c3csc4ccc(Cl)cc34)C2SC1 (some centres unmarked) [Ex. 38B]
8

Also, CC1=C(C(=O)O)N2C(=O)C(NC(=O)[C@H](N)c3csc4ccc(F)cc34)C2SC1 (some centres unmarked) please.
64

Also, C=CC1=C(C(=O)O)N2C(=O)C(NC(=O)[C@H](N)c3csc4ccccc34)C2SC1 (some centres unmarked) please.
32

----------
- Tested on: Staph. aureus
- assay summary: Agar Dilution MIC (Table I)
- Format: cell-based
- condition parameters: Staphylococcus aureus, strain X400; read-out: Agar Dilution MIC
metric: MIC (µg/mL)
Numeric only. Scale: µg/mL

Take a look at these entries with their results.
CC1=C(C(=O)O)N2C(=O)C(NC(=O)[C@@H](N)c3csc4cccc(Cl)c34)C2SC1 (stereo partly shown) [Ex. 36A] : 128
CC1=C(C(=O)O)N2C(=O)C(NC(=O)[C@@H](N)c3csc4ccc(Cl)cc34)C2SC1 (stereo partly shown) [Ex. 38A] : 64
CON=C(C(=O)NC1C(=O)N2C(C(=O)O)=C(C)CSC12)c1csc2cc(OC)ccc12 (stereo not shown) : 64

Next item in the queue.
// MIC lookup, key: CC1=C(C(=O)O)N2C(=O)C(NC(=O)[C@@H](N)c3csc4cc(Cl)ccc34)C2SC1 (stereo partly shown) [Ex. 37A]
128

----------
- Tested on: Staph. aureus
- assay summary: Expanded Spectrum MIC (Table II)
- Format: cell-based
- condition parameters: Staphylococcus aureus, strain S227
metric: MIC (µg/mL)
Numeric only. Scale: µg/mL

Take a look at these entries with their results.
CC1=C(C(=O)O)N2C(=O)C(NC(=O)C(N)c3csc4ccccc34)C2SC1 (stereo not drawn) : 1
CC1=C(C(=O)O)N2C(=O)C(NC(=O)[C@H](N)c3csc4c(F)cccc34)C2SC1 (stereo partly drawn) : 2
CC1=C(C(=O)O)N2C(=O)C(NC(=O)[C@H](N)c3csc4cccc(F)c34)C2SC1 (stereo partly drawn) : 4
CC1=C(C(=O)O)N2C(=O)C(NC(=O)[C@H](N)c3csc4cc(F)ccc34)C2SC1 (stereo partly drawn) : 1
CON=C(C(=O)NC1C(=O)N2C(C(=O)O)=C(C)CSC12)c1csc2cc(OC)ccc12 (stereo not drawn) : 2

Next item in the queue.
What is its MIC for Staph. aureus? Entry: CC1=C(C(=O)O)N2C(=O)C(NC(=O)[C@H](N)c3csc4ccc(F)cc34)C2SC1 (stereo partly drawn)
2

----------
- System: Staph. aureus
- assay summary: Expanded Spectrum MIC (Table II)
- Format: cell-based
- condition parameters: Staphylococcus aureus, strain S224
metric: MIC (µg/mL)
Numeric only. Scale: µg/mL

What is its MIC for Staph. aureus? Entry: CON=C(C(=O)NC1C(=O)N2C(C(=O)O)=C(C)CSC12)c1csc2cc(OC)ccc12 (stereo not drawn) [Ex. 22]
2

----------
Reported MIC values for the following compounds.
- Tested on: Bacteroides corrodens
- assay summary: Susceptibility of Anaerobic Bacteroides Isolates by the Agar-Dilution Method (Table III)
- Type: cell-based
- condition parameters: Eikenella corrodens; strain 1874; readings 24 hrs. after incubation
# do not omit the unit; it follows the number

Take a look at these entries with their results.
CC1=C(C(=O)O)N2C(=O)C(NC(=O)[C@H](N)c3csc4ccc(F)cc34)C2SC1 (stereo partly drawn) [Ex. 18] : 64 µg/mL
CO[C@@]1(NC(=O)C(C(=O)O)c2ccc(O)cc2)C(=O)N2C(C(=O)O)=C(CSc3nnnn3C)CO[C@@H]21 (stereo partly drawn) [moxalactam, reference compound] : 8 µg/mL

// MIC lookup, key: CC1=C(C(=O)O)N2C(=O)C(NC(=O)[C@H](N)c3csc4c(F)cccc34)C2SC1 (stereo partly drawn) [Ex. 20]
64 µg/mL

Also, CC1=C(C(=O)O)N2C(=O)C(NC(=O)[C@H](N)c3csc4cc(F)ccc34)C2SC1 (stereo partly drawn) [Ex. 17] please.
16 µg/mL

Also, CC1=C(C(=O)O)N2C(=O)C(NC(=O)C(N)c3csc4ccccc34)C2SC1 (stereo not drawn) [Ex. 9] please.
32 µg/mL

Also, CC1=C(C(=O)O)N2C(=O)C(NC(=O)[C@H](N)c3csc4cccc(F)c34)C2SC1 (stereo partly drawn) [Ex. 19] please.
32 µg/mL

----------
Reported MIC values for the following compounds.
- System: H. influenzae
- assay summary: Expanded Spectrum MIC (Table II)
- Format: cell-based
- condition parameters: Haemophilus influenzae, strain 105
Numeric only. Scale: µg/mL

Take a look at these entries with their results.
CC1=C(C(=O)O)N2C(=O)C(NC(=O)C(N)c3csc4ccccc34)C2SC1 (stereo not drawn) : 1
CC1=C(C(=O)O)N2C(=O)C(NC(=O)[C@H](N)c3csc4cc(F)ccc34)C2SC1 (stereo partly drawn) : 0.5
CC1=C(C(=O)O)N2C(=O)C(NC(=O)[C@H](N)c3csc4ccc(F)cc34)C2SC1 (stereo partly drawn) : 1

What is its MIC for H. influenzae? Entry: CON=C(C(=O)NC1C(=O)N2C(C(=O)O)=C(C)CSC12)c1csc2cc(OC)ccc12 (stereo not drawn)
2

Also, CC1=C(C(=O)O)N2C(=O)C(NC(=O)[C@H](N)c3csc4cccc(F)c34)C2SC1 (stereo partly drawn) please.
4

Also, CC1=C(C(=O)O)N2C(=O)C(NC(=O)[C@H](N)c3csc4c(F)cccc34)C2SC1 (stereo partly drawn) please.
2

----------
- Tested on: Bacteroides fragilis
- assay summary: Susceptibility of Anaerobic Bacteroides Isolates by the Agar-Dilution Method (Table III)
- Assay type: cell-based
- condition parameters: 24 h, strain 111, readings 24 hrs. after incubation
- Experimental: A typical and preferred compound provided by this invention is 7-(3-benzothienyl)glycylamido-3-methyl-3-cephem-4-carboxylic acid, the compound illustrated in Example 9. The antibacterial activity of this compound has been determined in standard in vitro agar dilution assays against a variety of gram positive and gram negative microorganism. […] Agar-Dilution Method MIC (μg/ml) readings 24 hrs. after incubation
Reported MIC values for the following compounds.
Numeric only. Scale: µg/mL

Take a look at these entries with their results.
CO[C@@]1(NC(=O)C(C(=O)O)c2ccc(O)cc2)C(=O)N2C(C(=O)O)=C(CSc3nnnn3C)CO[C@@H]21 (stereo partly drawn) [moxalactam, reference compound] : 8
CC1=C(C(=O)O)N2C(=O)C(NC(=O)[C@H](N)c3csc4ccc(F)cc34)C2SC1 (stereo partly drawn) [Ex. 18] : 128
CC1=C(C(=O)O)N2C(=O)C(NC(=O)[C@H](N)c3csc4cc(F)ccc34)C2SC1 (stereo partly drawn) [Ex. 17] : 32
CC1=C(C(=O)O)N2C(=O)C(NC(=O)C(N)c3csc4ccccc34)C2SC1 (stereo not drawn) [Ex. 9] : 64
CC1=C(C(=O)O)N2C(=O)C(NC(=O)[C@H](N)c3csc4cccc(F)c34)C2SC1 (stereo partly drawn) [Ex. 19] : 64

Next item in the queue.
// MIC lookup, key: CC1=C(C(=O)O)N2C(=O)C(NC(=O)[C@H](N)c3csc4c(F)cccc34)C2SC1 (stereo partly drawn) [Ex. 20]
128

----------
Reported MIC values for the following molecules.
- System: Staph. aureus
- assay summary: Expanded Spectrum MIC (Table II)
- Type: cell-based
- condition parameters: Staphylococcus aureus, strain S234
- Excerpt: A typical and preferred compound provided by this invention is 7-(3-benzothienyl)glycylamido-3-methyl-3-cephem-4-carboxylic acid, the compound illustrated in Example 9. The antibacterial activity of this compound has been determined in standard in vitro agar dilution assays against a variety of gram positive and gram negative microorganism. […]
Numeric only. Scale: mg/L

Take a look at these entries with their results.
CC1=C(C(=O)O)N2C(=O)C(NC(=O)[C@H](N)c3csc4ccc(F)cc34)C2SC1 (stereo partly drawn) : 2
CON=C(C(=O)NC1C(=O)N2C(C(=O)O)=C(C)CSC12)c1csc2cc(OC)ccc12 (stereo not drawn) : 2
CC1=C(C(=O)O)N2C(=O)C(NC(=O)[C@H](N)c3csc4c(F)cccc34)C2SC1 (stereo partly drawn) : 2
CC1=C(C(=O)O)N2C(=O)C(NC(=O)[C@H](N)c3csc4cc(F)ccc34)C2SC1 (stereo partly drawn) : 1

// MIC lookup, key: CC1=C(C(=O)O)N2C(=O)C(NC(=O)[C@H](N)c3csc4cccc(F)c34)C2SC1 (stereo partly drawn)
4

Also, CC1=C(C(=O)O)N2C(=O)C(NC(=O)C(N)c3csc4ccccc34)C2SC1 (stereo not drawn) please.
2

Where do these numbers come from? They come from patent US4492693A.
